The measured values listed here are drawn from patent US20240279241A1.

- target.of.assay: KRAS G12A (Homo sapiens, UniProt P01116, G12A)
- Construct: 4 nM KRAS; aa1-188 containing the G12V, G12C, G12A or G12S amino acid substitution
- Sequence (P01116 1-188 isoform P01116-2 G12A): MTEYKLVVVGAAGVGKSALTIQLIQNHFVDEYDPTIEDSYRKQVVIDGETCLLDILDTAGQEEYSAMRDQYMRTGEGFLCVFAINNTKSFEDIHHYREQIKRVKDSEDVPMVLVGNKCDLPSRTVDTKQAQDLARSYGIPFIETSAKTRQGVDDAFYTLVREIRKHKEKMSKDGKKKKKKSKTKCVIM
- assay.name: HTRF nucleotide exchange assay (NEA), KRAS G12A
pIC50: −log10 of the molar value.
quantity.measured: pIC50

>  <molecule>
Oc1cc(-c2ncc3c(N4CCCSCC4)nc(OCC45CCCN4CCC5)nc3c2F)c2ccccc2c1

>  <quantity.measured>
pIC50

>  <endpoint.result>
≥ 8.00

$$$$
>  <molecule>
Oc1cc(-c2ncc3c(NCC4CCOCC4)nc(OCC45CCCN4CCC5)nc3c2F)c2ccccc2c1

>  <quantity.measured>
pIC50

>  <endpoint.result>
5.00 to 7.00

$$$$
>  <molecule>
CSCCCN(C)c1nc(OCC23CCCN2CCC3)nc2c(F)c(-c3cc(O)cc4ccccc34)ncc12

>  <quantity.measured>
pIC50

>  <endpoint.result>
5.00 to 7.00

$$$$
>  <molecule>
O=C1CN(c2nc(OCC34CCCN3CCC4)nc3c(F)c(-c4cc(O)cc5ccccc45)ncc23)CCN1

>  <quantity.measured>
pIC50

>  <endpoint.result>
5.00 to 7.00

$$$$

query: # return recorded pIC50 for entry C#Cc1c(F)ccc2cc(O)cc(-c3ncc4c(N5CCCNC(=O)C5)nc(OC[C@@]56CCCN5C[C@H](F)C6)nc4c3F)c12 (relative stereo)
result: ≥ 8.00

----------
Recorded pIC50 by entry
- target.of.assay: KRAS G12V (Homo sapiens, UniProt P01116, G12V)
- Construct: 4 nM KRAS; aa1-188 containing the G12V, G12C, G12A or G12S amino acid substitution
- Sequence (P01116 1-188 isoform P01116-2 G12V): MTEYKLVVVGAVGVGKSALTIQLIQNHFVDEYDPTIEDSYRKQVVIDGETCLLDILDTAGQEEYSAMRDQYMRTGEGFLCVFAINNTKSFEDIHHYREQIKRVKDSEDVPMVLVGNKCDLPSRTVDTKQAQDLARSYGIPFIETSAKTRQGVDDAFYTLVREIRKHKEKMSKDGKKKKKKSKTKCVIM
- assay.name: HTRF nucleotide exchange assay (NEA), KRAS G12V
- Assay type: biochemical
- Description: The capacity of compounds to bind KRAS G12D, other KRAS mutants and wildtype RAS isoforms was quantified using a HTRF nucleotide exchange assay. […] Following 30-minute incubation at room temperature, time-resolved fluorescence was measured on a PerkinElmer Envision plate reader. […] Data was analysed using a four-parameter logistic model to calculate IC50 values, with at least two independent replicates were performed for each compound.
pIC50: −log10 of the molar value.

>  <compound>
Oc1cc(-c2ncc3c(N4CCC5(CCOC5)CC4)nc(OCC45CCCN4CCC5)nc3c2F)c2ccccc2c1

>  <pIC50>
5.00 to 7.00

$$$$
>  <compound>
Oc1cc(-c2ncc3c(N4CCCCC4)nc(OCC45CCCN4CCC5)nc3c2F)c2ccccc2c1

>  <pIC50>
7.00 to 8.00

$$$$
>  <compound>
Oc1cc(-c2ncc3c(N4CC5CNCC5C4)nc(OCC45CCCN4CCC5)nc3c2F)c2ccccc2c1 (stereo not shown)

>  <pIC50>
5.00 to 7.00

$$$$
>  <compound>
OCC1CCN(c2nc(OCC34CCCN3CCC4)nc3c(F)c(-c4cc(O)cc5ccccc45)ncc23)C1 (stereo not shown)

>  <pIC50>
5.00 to 7.00

$$$$
>  <compound>
O=C1CN(c2nc(OCC34CCCN3CCC4)nc3c(F)c(-c4cc(O)cc5ccccc45)ncc23)CCN1

>  <pIC50>
5.00 to 7.00

$$$$
>  <compound>
[O-][S+]1CCCN(c2nc(OCC34CCCN3CCC4)nc3c(F)c(-c4cc(O)cc5ccccc45)ncc23)CC1 (stereo not shown)

>  <pIC50>
7.00 to 8.00

$$$$

query: # return recorded pIC50 for entry `O=S1(=O)CCN(c2nc(OCC34CCCN3CCC4)nc3c(F)c(-c4cc(O)cc5ccccc45)ncc23)CCN1`
result: 5.00 to 7.00

----------
Recorded IC50 by entry
- target.of.assay: KRAS G12C (Homo sapiens, UniProt P01116, G12C)
- Construct: 4 nM KRAS; aa1-188 containing the G12V, G12C, G12A or G12S amino acid substitution
- Sequence (P01116 1-188 isoform P01116-2 G12C): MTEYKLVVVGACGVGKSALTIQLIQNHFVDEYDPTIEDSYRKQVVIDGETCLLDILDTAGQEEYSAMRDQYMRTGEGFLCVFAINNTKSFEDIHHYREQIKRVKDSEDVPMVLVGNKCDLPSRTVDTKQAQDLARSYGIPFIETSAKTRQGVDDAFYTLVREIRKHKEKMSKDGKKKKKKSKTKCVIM
- assay.name: HTRF nucleotide exchange assay (NEA), KRAS G12C
- Type: biochemical

Sample answers from the record:
>  <molecule>
O=S1(=O)CCCN(c2nc(OCC34CCCN3CCC4)nc3c(F)c(-c4cc(O)cc5ccccc45)ncc23)CC1 [Example 24]

>  <IC50>
10 to 100 nM

$$$$
>  <molecule>
COCCCN(C)c1nc(OCC23CCCN2CCC3)nc2c(F)c(-c3cc(O)cc4ccccc34)ncc12 [Example 28]

>  <IC50>
100 to 10000 nM

$$$$
>  <molecule>
O=C1NCCC12CCN(c1nc(OCC34CCCN3CCC4)nc3c(F)c(-c4cc(O)cc5ccccc45)ncc13)CC2 [Example 77]

>  <IC50>
100 to 10000 nM

$$$$
>  <molecule>
Oc1cc(-c2ncc3c(N4CCC5(CCNC5)CC4)nc(OCC45CCCN4CCC5)nc3c2F)c2ccccc2c1 [Example 2]

>  <IC50>
100 to 10000 nM

$$$$
>  <molecule>
Oc1cc(-c2ncc3c(N4CCCC5(COC5)C4)nc(OCC45CCCN4CCC5)nc3c2F)c2ccccc2c1 [Example 52]

>  <IC50>
10 to 100 nM

$$$$

query: Provide KRAS G12C (Homo sapiens, UniProt P01116, G12C) IC50 reading for O=C1NCc2ccc(Nc3nc(OCC45CCCN4CCC5)nc4c(F)c(-c5cc(O)cc6ccccc56)ncc34)cc21 [Example 82] .
result: 100 to 10000 nM

query: Provide KRAS G12C (Homo sapiens, UniProt P01116, G12C) IC50 reading for COCCCNc1nc(OCC23CCCN2CCC3)nc2c(F)c(-c3cc(O)cc4ccccc34)ncc12 [Example 11] .
result: 100 to 10000 nM

query: Provide KRAS G12C (Homo sapiens, UniProt P01116, G12C) IC50 reading for C#Cc1c(F)ccc2cc(O)cc(-c3ncc4c(N5CCCCCC5)nc(OC[C@@]56CCCN5C[C@H](F)C6)nc4c3F)c12 (relative stereo) [Example 84] .
result: ≤ 10 nM

query: Provide KRAS G12C (Homo sapiens, UniProt P01116, G12C) IC50 reading for OCC1CCN(c2nc(OCC34CCCN3CCC4)nc3c(F)c(-c4cc(O)cc5ccccc45)ncc23)CC1 [Example 79] .
result: 10 to 100 nM

query: Provide KRAS G12C (Homo sapiens, UniProt P01116, G12C) IC50 reading for Oc1cc(-c2ncc3c(NCC4CCOCC4)nc(OCC45CCCN4CCC5)nc3c2F)c2ccccc2c1 [Example 9] .
result: 100 to 10000 nM

query: Provide KRAS G12C (Homo sapiens, UniProt P01116, G12C) IC50 reading for C#Cc1c(F)ccc2cc(O)cc(-c3ncc4c(N5CCC(O)CC5)nc(OC[C@@]56CCCN5C[C@H](F)C6)nc4c3F)c12 (relative stereo) [Example 86] .
result: ≤ 10 nM

----------
- target.of.assay: KRAS WT (Homo sapiens, UniProt P01116)
- Construct: Recombinant human RAS protein (2 nM); aa1-188 KRAS WT
- Sequence (P01116 1-188 isoform P01116-2): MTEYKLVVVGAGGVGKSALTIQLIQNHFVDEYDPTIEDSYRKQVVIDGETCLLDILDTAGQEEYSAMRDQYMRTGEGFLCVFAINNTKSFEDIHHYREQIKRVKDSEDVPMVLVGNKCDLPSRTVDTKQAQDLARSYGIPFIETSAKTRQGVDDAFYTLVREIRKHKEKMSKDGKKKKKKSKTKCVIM
- assay.name: HTRF nucleotide exchange assay (NEA), KRAS WT
- Assay type: biochemical
- details: recombinant human KRAS WT aa1-188, 2 nM; lowest class = % inhibition at 10 μM
Recorded IC50 by entry

>  <smiles>
Fc1c(-c2cccc3[nH]ncc23)ncc2c(N3CCCOCC3)nc(OCC34CCCN3CCC4)nc12

>  <IC50>
> 10 µM

$$$$

query: # return recorded IC50 for entry `COCCCNc1nc(OCC23CCCN2CCC3)nc2c(F)c(-c3cc(O)cc4ccccc34)ncc12`
result: 0.1 to 10 µM

query: # return recorded IC50 for entry `Fc1c(-c2cccc3[nH]ncc23)ncc2c(N3CCCOCC3)nc(OC[C@@]34CCCN3C[C@H](F)C4)nc12`
result: > 10 µM

----------
- target.of.assay: KRAS WT (Homo sapiens, UniProt P01116)
- Construct: Recombinant human RAS protein (2 nM); aa1-188 KRAS WT
- assay.name: HTRF nucleotide exchange assay (NEA), KRAS WT
- Assay type: biochemical
Recorded IC50 by entry

Sample answers from the record:
>  <compound>
COCC(C)(C)CNc1nc(OCC23CCCN2CCC3)nc2c(F)c(-c3cc(O)cc4ccccc34)ncc12

>  <target.of.assay>
KRAS WT (Homo sapiens, UniProt P01116)

>  <IC50>
0.1 to 10 µM

$$$$
>  <compound>
Oc1cc(-c2ncc3c(NCC4CCOCC4)nc(OCC45CCCN4CCC5)nc3c2F)c2ccccc2c1

>  <target.of.assay>
KRAS WT (Homo sapiens, UniProt P01116)

>  <IC50>
0.1 to 10 µM

$$$$
>  <compound>
COCCC(C)Nc1nc(OCC23CCCN2CCC3)nc2c(F)c(-c3cc(O)cc4ccccc34)ncc12 (stereo not drawn)

>  <target.of.assay>
KRAS WT (Homo sapiens, UniProt P01116)

>  <IC50>
0.1 to 10 µM

$$$$

query: Provide KRAS WT (Homo sapiens, UniProt P01116) IC50 reading for `CS(=O)(=O)CCCNc1nc(OCC23CCCN2CCC3)nc2c(F)c(-c3cc(O)cc4ccccc34)ncc12` .
result: 0.1 to 10 µM

query: Provide KRAS WT (Homo sapiens, UniProt P01116) IC50 reading for `Oc1cc(-c2ncc3c(N4CC5CCC(C4)O5)nc(OCC45CCCN4CCC5)nc3c2F)c2ccccc2c1` .
result: 0.1 to 10 µM

query: Provide KRAS WT (Homo sapiens, UniProt P01116) IC50 reading for `Oc1cc(-c2ncc3c(N4CCCOCC4)nc(OCC45CCCN4CCC5)nc3c2F)c2ccccc2c1` .
result: 0.01 to 0.1 µM

query: Provide KRAS WT (Homo sapiens, UniProt P01116) IC50 reading for `Nc1cc2ccccc2c(-c2ncc3c(N4CCCOCC4)nc(OCC45CCCN4CCC5)nc3c2F)n1` .
result: 0.1 to 10 µM

query: Provide KRAS WT (Homo sapiens, UniProt P01116) IC50 reading for `COCCCN(C)c1nc(OCC23CCCN2CCC3)nc2c(F)c(-c3cc(O)cc4ccccc34)ncc12` .
result: 0.1 to 10 µM
